Hey, just so you know, these numbers are from PubChem BioAssay (NCI).

Each entry below carries its reported TGI.
# Test system: NCI/ADR-RES ovarian
# test.protocol: NCI tumour cell line growth inhibition, 48 h

CC(C)(C)[Si](C)(C)OC[C@H](/C=C\CCCC(=O)O)NC1(c2ccccc2)c2ccccc2-c2ccccc21 ... 61 µM

Fetch value of TGI on NCI/ADR-RES ovarian for CC(=O)OCC1OC(n2c(-c3ccccc3)c(N=Nc3ccc(C)cc3)c(C)c(C#N)c2=S)C(OC(C)=O)C(OC(C)=O)C1OC(C)=O (stereo not drawn) . 39.9 µM

Report TGI on NCI/ADR-RES ovarian for this entry: O=C1CC(c2ccccc2)S(=O)c2ccccc2N1 (stereo not drawn) > 100 µM
